I'd be grateful if you could share measured Jurkat Cell Binding (FOI) for these entries.
molecular target: T1, human CD3 expressed on cells (human, UniProt P07766 23-207; P04234 22-171; P09693 23-182); assay: flow cytometry, 25 nM
T1 construct: whole, on cells; CD3 complex on Jurkat cells and on human primary T cells
T1 sequence (P07766 23-207, chain 1 of 3): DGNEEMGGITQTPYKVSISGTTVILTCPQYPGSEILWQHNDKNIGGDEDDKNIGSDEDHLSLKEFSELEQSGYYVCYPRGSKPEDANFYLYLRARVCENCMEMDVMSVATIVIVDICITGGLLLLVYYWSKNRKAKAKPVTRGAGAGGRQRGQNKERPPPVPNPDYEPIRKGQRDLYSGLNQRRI
T1 sequence (P04234 22-171, chain 2 of 3): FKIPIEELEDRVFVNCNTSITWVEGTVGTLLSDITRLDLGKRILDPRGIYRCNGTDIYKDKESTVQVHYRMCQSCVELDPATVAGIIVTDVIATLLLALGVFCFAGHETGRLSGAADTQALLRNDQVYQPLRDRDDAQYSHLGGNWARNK
T1 sequence (P09693 23-182, chain 3 of 3): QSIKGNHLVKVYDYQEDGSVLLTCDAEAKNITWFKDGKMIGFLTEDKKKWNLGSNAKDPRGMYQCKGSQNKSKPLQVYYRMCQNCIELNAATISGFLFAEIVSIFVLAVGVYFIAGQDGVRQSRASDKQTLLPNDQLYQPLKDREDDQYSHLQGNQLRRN
Answers are plain numbers, in FOI.

- mAb 96 (antibody, V domains shown) VH: QAHLVESGGGVVQPGRSLRLSCSASGFTFSGYGMHWVRQAPGKGLEWVSLIYFDGRNKYYADSVKGRFTISRDNSKNTLYLQMNSLRAEDTAVYYCARGGGYNWFDPWGQGTLVTVSS VL: DIQMTQSPSSLSASVGDRVTITCRASQSINNYLSWYQQKPGKAPKLLIYLASNLQSGVPSRFSGNGSGTDFTLTISSLQPEDFATYYCQLSYRSPFTFGPGTKVDVK: 174
- mAb 164 (antibody, V domains shown) VH: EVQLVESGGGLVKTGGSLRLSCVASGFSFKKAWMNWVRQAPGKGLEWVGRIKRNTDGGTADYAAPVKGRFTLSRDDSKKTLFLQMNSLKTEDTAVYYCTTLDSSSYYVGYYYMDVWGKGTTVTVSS VL: DIQMTQSPSSVSASVGDRVTITCRASQDIKNWLAWYQQKPGKAPKLLIYTASSLQSGVPSRFSGSGSGTDFTLTIGSLQPEDFATYYCQQAHSLPITFGQGTRLEIK: 137
- mAb 74 (antibody, V domains shown) VH: EVQLVESGGGLVQPGRSLRLSCAASGFTFADYVMHWVRQAPGKGLEWVSGINWNNARIGYVGSVKGRFTISRDNAKNSLYLQMTSLRVEDTALYHCVREGNFDFWSAYYRGFLDLWGRGTLVTVSS VL: DIQMTQSPSSLSASVGDRVTITCRASQGIRSDLGWYQQKPGKAPKRLIYGASSLQGGVPSRFSGSGSGTEFTLTISSLQPEDFATYYCLQHNSYPYTFGQGTKLEIK: 151

Quick request: Jurkat Cell Binding (FOI) for each listed item, please.
1. mAb 51 (antibody, V domains shown) VH: EVQLVESGGGLVQPGGSLRLSCAASGFTLSSYTMNWVRQAPGKGLEWVSYISSSSRTIYYSDSVKGRFSISRDNAKNSLYLQMNSLRDEDTALYYCAREDYYDSSGFDNWGQGTLVTVSS VL: AIRMTQSPSSFSASTGDRVTITCRASQGISSYLAWYQQKPGKAPKLLIYTASTLQSGVPSRFSGSGSGTDFTLTIRSLQSEDFATYYCQQYYSYPRTFGQGTKVEIK
2. mAb 130 (antibody, V domains shown) VH: EVQLVESGGGLVKTGGSLRLSCVASGFSFKKAWMNWVRQAPGKGLEWVGRIKRNSDGGATDYAAPVKDRFTLSRDDSKNTLYLQMNSLKTEDTAVYYCTTLDSSSWYVGYYYMDVWGKGTTVTVSS VL: DIHMTQSPSSVSASLGDRVTFTCRASQDINNWLAWYQQRPGKAPKLLIYTASSLQSGVPSRFSGSGSGTDFTLTISSLQPEDFATYYCQQAHSLPITFGQGTRLGIK
3. mAb 112 (antibody, V domains shown) VH: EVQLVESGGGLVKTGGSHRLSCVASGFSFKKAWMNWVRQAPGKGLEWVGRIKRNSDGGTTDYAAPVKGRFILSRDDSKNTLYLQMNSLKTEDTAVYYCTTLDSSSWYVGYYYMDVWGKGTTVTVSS VL: DIQMTQSPSSVSASVGDRVTITCRASQDINNWLAWYQQKPGKAPKILIYTASNLQSGVPSRFSGSGSGTDFTLTISSLQPEDFATYFCQQAHSLPITFGQGTRLEIK
4. mAb 126 (antibody, V domains shown) VH: EVQLVESGGGLVQPGRSLRLSCAASGFTFNDYTMHWVRQVPGKGLEWVSGISWNSGSIDYADSVKGRFTISRDNAKNSLYLQMNSLRAEDTALYYCAKDSSGYGYYYYYYMDVWGKGTTVTVSS VL: EIVMTQSPATLSVSPGERATLSCRASQSVSINLAWYQQKPGQAPRLLIYGASTRATGIPARFSGSGSGTEFTLTISSLQSEDFAVYYCQLYHNWPHFGQGTRLEIK
5. mAb 115 (antibody, V domains shown) VH: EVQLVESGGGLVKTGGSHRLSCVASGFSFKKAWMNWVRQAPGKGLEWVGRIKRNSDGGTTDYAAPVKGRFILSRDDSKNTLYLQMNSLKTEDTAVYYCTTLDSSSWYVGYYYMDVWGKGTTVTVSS VL: DIQMTQSPSSVSASVGDRVTITCRASQDINNWLAWYQQKPGKAPKILIYTASNLQSGVPSRFSGSGSGTDFTLTISSLQPEDFATYFCQQAHGLPITFGQGTRLEIK
6. mAb 53 (antibody, V domains shown) VH: QVQLVQSGAEVKKPGASVKVSCKASGYTFTSYDINWVRQATGQGLEWMGWMNPKSGKTGYAQKFQGRITMTRNTPISTVYMDLSSLRSEDTAVYYCAREGHYDFWTGYYSFDYWGQGTLVTVSS VL: DIQMTQSPSSLSASVGDRVTITCRASQGIRNDLGWYQQTPGKAPKRLIYAASSLQSGVPSRFSGSGSGTEFTLTISSLQPEDFATYYCLQHYSYPYTFGQGTKLEIK
7. mAb 79 (antibody, V domains shown) VH: QVQLVQSGAEVKKPGASVKVSCKASGYIVTGYYMHWVRQAPGHGLEWMGWINPNSGGTNFAQNFQGRVTMTRDTSISTFYMDLNRLTSDDTAVYYCARGGAPVSYWFFDLWGRGTLVTVSS VL: DIQMTQSPSSLSASVGDRVTITCRASQNINSYLNWYHQKPGKAPKVLIYNTSTLKSGVPSRFSGSGSGTYFTLTISSLQPEDFATFYCQQSHSTPFTFGPGTKVDIK

[99.8, 155, 158, 97, 157, 44.6, 171]
